Test system: Caco-2
Experiment: Permeability across human Caco-2 cells assessed as compound transport per hr
Format: ADME, cell-based
Property: permeability (%)

P = CCCC(=O)Nc1n[nH]c2cc(Cl)c(-c3ccccc3)cc12
Q = CCCC(=O)Nc1n[nH]c2cc(Cl)c(Br)cc12
R = CCCC(=O)Nc1n[nH]c2cc(Cl)c(-c3ccc(O)cc3)cc12
Query block: Could you please sort these 3 entries by permeability from high to low? Your answer should be the labels, listed in the requested order.
Result block: Q, R, P

* * *

Assay: Metabolic stability in human liver S9 fraction assessed as compound remaining after 15 mins
Format: ADME, subcellular
Details: read-out: Activity
Property: remaining at 0.25 h (%)

INSERT INTO measurements (smiles_structure, property, measurement) VALUES
  ('CCCC(=O)Nc1n[nH]c2cc(Cl)c(Br)cc12', 'remaining at 0.25 h', 97),
  ('CCCC(=O)Nc1n[nH]c2cc(Cl)c(-c3ccoc3)cc12', 'remaining at 0.25 h', 45),
  ('CCCC(=O)Nc1n[nH]c2c(F)c(F)c(-c3ccccc3)cc12', 'remaining at 0.25 h', 86);

1 = CCCC(=O)Nc1n[nH]c2cc(Cl)c(-c3ccccc3)cc12
2 = CCCC(=O)Nc1n[nH]c2cc(-c3ccc(O)cc3)ccc12
Query block: Between 1 and 2 , whose measured remaining at 0.25 h reads higher? Write down the label of the entry you select.
Result block: 1
(1: 91%, 2: 58%)

* * *

Molecular target: Cytochrome P450 1A2 (Homo sapiens)
Sequence (P05177 whole entry): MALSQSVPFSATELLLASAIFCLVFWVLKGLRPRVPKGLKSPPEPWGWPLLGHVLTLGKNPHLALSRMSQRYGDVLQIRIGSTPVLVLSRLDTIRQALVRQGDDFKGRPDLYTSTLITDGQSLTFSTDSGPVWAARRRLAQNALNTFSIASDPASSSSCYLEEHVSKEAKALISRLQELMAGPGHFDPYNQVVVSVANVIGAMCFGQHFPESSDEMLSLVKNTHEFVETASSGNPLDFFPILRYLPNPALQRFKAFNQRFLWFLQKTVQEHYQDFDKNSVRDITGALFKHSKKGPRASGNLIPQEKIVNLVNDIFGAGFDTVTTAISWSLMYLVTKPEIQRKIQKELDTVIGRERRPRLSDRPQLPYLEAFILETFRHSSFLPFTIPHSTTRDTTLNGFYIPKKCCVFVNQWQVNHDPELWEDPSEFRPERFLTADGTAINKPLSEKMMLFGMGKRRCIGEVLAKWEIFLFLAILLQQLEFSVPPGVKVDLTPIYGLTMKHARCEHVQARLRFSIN
Test: Inhibition of human recombinant CYP1A2 by kinetic assay
Property: IC50 (nM)

INSERT INTO assay_data (smiles_structure, property, quantity_unit, measurement) VALUES
  ('CCCC(=O)Nc1n[nH]c2cc(-c3ccc(O)cc3)ccc12', 'IC50', 'nM', 22000);

1 = CCCC(=O)Nc1n[nH]c2cc(Cl)c(-c3ccoc3)cc12
2 = CCCC(=O)Nc1n[nH]c2cc(-c3ccccc3)ccc12
Query block: Hi there, can you help? I need to know whether 1 or 2 has lower measured IC50. Write the label of whichever entry you select.
Result block: 1
(1: 30 nM, 2: 390 nM)

* * *

Experiment: Solubility of the compound
Assay type: physicochemical
Property: solubility (µg/mL)

INSERT INTO assay_data (smiles_structure, property, measurement) VALUES
  ('CCCC(=O)Nc1n[nH]c2c(F)c(F)ccc12', 'solubility', 54),
  ('CCCC(=O)Nc1n[nH]c2cc(-c3ccc(O)cc3)ccc12', 'solubility', 67);

* * *

Experiment: Lipophilicity, log D at pH 7.4
Format: physicochemical
Conditions: buffer
Property: logD

INSERT INTO results (smiles_structure, property, measurement) VALUES
  ('O=C(CN1CCOCC1)Nc1n[nH]c2cc(Cl)ccc12', 'logD', 3.1),
  ('CCCC(=O)Nc1n[nH]c2c(F)c(F)ccc12', 'logD', 3),
  ('CCCC(=O)Nc1n[nH]c2cc(Cl)c(Br)cc12', 'logD', 4.4),
  ('CCCC(=O)Nc1n[nH]c2cc(Cl)c(-c3ccccc3)cc12', 'logD', 3.7);

* * *

Target: UniProtKB P05177
Experiment: Inhibition of human recombinant CYP1A2
The compounds listed here are annotated with their IC50.

Some solved entries appear below for comparison.
INSERT INTO measurements (smiles_structure, measurement) VALUES
  ('O=C(O)CCC(=O)Nc1n[nH]c2cc(Cl)ccc12', '> 50 µM'),
  ('CCCC(=O)Nc1n[nH]c2cc(-c3ccc(O)cc3)ccc12', '> 50 µM'),
  ('CCCC(=O)Nc1n[nH]c2cc(-c3ccccc3)ccc12', '> 10 µM');

So for CCCC(=O)Nc1n[nH]c2cc(Cl)c(-c3ccccc3)cc12 , the logged IC50 turned out to be < 0.4 µM

Reported IC50 of CCCC(=O)Nc1n[nH]c2cc(Cl)c(-c3ccoc3)cc12 : < 0.4 µM

For this compound ( CCCC(=O)Nc1n[nH]c2cc(-c3ccc(O)cc3)c(Br)cc12 ), measured IC50 is > 10 µM

IC50 reported for this compound CCCC(=O)Nc1n[nH]c2cc(Cl)c(-c3ccc(OCc4ccccc4)cc3)cc12 : > 10 µM

* * *

Tested on: Caco-2
Test: Permeability across human Caco-2 cells assessed as compound transport per hr
Assay type: ADME, cell-based
Property: permeability (%)

INSERT INTO results (smiles_structure, quantity_unit, measurement) VALUES
  ('CCCC(=O)Nc1n[nH]c2c(F)c(F)ccc12', '%', 16.33),
  ('CCCC(=O)Nc1n[nH]c2cc(Cl)c(-c3ccoc3)cc12', '%', 12.3),
  ('CCCC(=O)Nc1n[nH]c2cc(-c3ccc(O)cc3)ccc12', '%', 15.25);
